These entries and their values trace back to patent US20250136687A1.

- test-target: human CD3 on the cell surface (Jurkat cells, expanded human T cells, Jurkat-Lucia NFAT cells, human PBMC) (human, UniProt P07766 23-207; P04234 22-171; P09693 23-182)
- Sequence (P07766 23-207, chain 1 of 3): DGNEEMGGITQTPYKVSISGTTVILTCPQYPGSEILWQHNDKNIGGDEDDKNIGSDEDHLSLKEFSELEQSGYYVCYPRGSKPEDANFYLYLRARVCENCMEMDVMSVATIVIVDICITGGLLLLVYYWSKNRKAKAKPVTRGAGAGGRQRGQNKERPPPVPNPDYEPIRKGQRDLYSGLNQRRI
- Sequence (P04234 22-171, chain 2 of 3): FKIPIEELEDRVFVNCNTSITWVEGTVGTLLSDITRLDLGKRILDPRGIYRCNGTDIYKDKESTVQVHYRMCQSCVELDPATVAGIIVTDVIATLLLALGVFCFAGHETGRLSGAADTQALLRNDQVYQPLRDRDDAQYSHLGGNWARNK
- Sequence (P09693 23-182, chain 3 of 3): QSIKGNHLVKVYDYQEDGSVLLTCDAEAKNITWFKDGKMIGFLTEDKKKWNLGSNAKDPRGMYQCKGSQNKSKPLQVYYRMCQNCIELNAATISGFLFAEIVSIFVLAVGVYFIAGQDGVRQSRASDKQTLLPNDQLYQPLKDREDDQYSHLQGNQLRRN
- assay-summary: cell-based or functional assay
quantity-name: EC50 (nM), luciferase reporter, Jurkat-Lucia NFAT cells
Write it as a number; the unit nM goes unstated.

Ask: For the binder shown here, 6-44.5 human-murine chimeric antibody (antibody, human IgG1, kappa, V domains shown, Human IgG1 chimera) VH: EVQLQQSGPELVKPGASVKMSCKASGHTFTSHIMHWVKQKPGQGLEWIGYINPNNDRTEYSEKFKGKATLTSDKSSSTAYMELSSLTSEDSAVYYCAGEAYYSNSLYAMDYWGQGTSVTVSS VL: DIVMSQSPSSLAVSAGEKVTMSCKSSQSLFNSRTRKNYLAWYQQKPGQSPELLIYWASTRESGVPVRFTGSGSGTDFTLTISSVQAEDLAVYYCKQSYYLRTFGGGTKLEVKR , give the reported EC50 (nM), luciferase reporter, Jurkat-Lucia NFAT cells.
Reply: 1.84
